assay: in vitro; details: pig
Reported viability at 10 µM values follow for various molecules
quantity.name: viability at 10 µM

molecule | quantity.name | reported.result
CC1=C2C(=CO[C@H](C)[C@H]2C)C(O)=C(C(=O)O)C1=O [CIT, Citrinin] | viability at 10 µM | 134%
Cc1c(O)c(C(=O)O)c(O)c2c1[C@H](C)[C@@H](C)OC2=O [DHCIT, dihydrocitrinone] | viability at 10 µM | 87%

====

system: PBCEC; settings: 10 µM, 48 h

molecule | target.desc | cellular morphology
C[C@@H]1Cc2c(Cl)cc(C(=O)O)c(O)c2C(=O)O1 [OTα, ochratoxin α] | PBCEC | unremarkable
Cc1c(O)c(C(=O)O)c(O)c2c1[C@H](C)[C@@H](C)OC2=O [DHCIT, dihydrocitrinone] | PBCEC | unremarkable
CC1=C2C(=CO[C@H](C)[C@H]2C)C(O)=C(C(=O)O)C1=O [CIT, Citrinin] | PBCEC | unremarkable

Data provenance: paper PMC8147254
